# Measurement setup: buffer; pH 7.4; 200.0 µM
Could you please report measured log10 solubility kinetic for the items listed next?
Hey, these are logged values: log10 of solubility kinetic, µg/mL being the unit before logging.

Inquiry: Using the record for CC(C)CCOc1ccc(C2CC(=O)N(C)C2=O)cc1 (centres undefined) , report its log10 solubility kinetic.
Reply text: 1.61

Inquiry: Using the record for O=C(COc1cccnc1[N+](=O)[O-])Nc1ccc(F)cc1 , report its log10 solubility kinetic.
Reply text: 1.06

Inquiry: Using the record for N#CCC(=O)Nc1ccc(C(=O)OCC(=O)NC(=O)Nc2ccc3c(c2)OCCO3)cc1 , report its log10 solubility kinetic.
Reply text: 1.02

Inquiry: Using the record for CCCCN(C(=O)C1CCCC1)c1c(N)n(Cc2ccccc2)c(=O)[nH]c1=O , report its log10 solubility kinetic.
Reply text: 0.56

Inquiry: Using the record for CC1(C)C[C@@H]2C[C@@](C)(CN2C(=O)c2ccccc2)C1 , report its log10 solubility kinetic.
Reply text: 1.56

Inquiry: Using the record for CCCC(=O)Nc1ccc(-c2csc(-c3cccnc3)n2)cc1 , report its log10 solubility kinetic.
Reply text: -0.15

Inquiry: Using the record for S=c1[nH]c2cc3c(cc2[nH]1)OCCO3 , report its log10 solubility kinetic.
Reply text: 1.29

Inquiry: Using the record for CC(=O)c1ccc(N2C(=O)CC(N3CCN(S(=O)(=O)c4cc(C)ccc4C)CC3)C2=O)cc1 (centres undefined) , report its log10 solubility kinetic.
Reply text: 1.76

Inquiry: Using the record for COc1ccc(CSC2=CS(=O)(=O)c3ccccc3N2)cc1 , report its log10 solubility kinetic.
Reply text: 0.99

Inquiry: Using the record for COc1ccc(-n2c(C)nc(N)c2C(=O)c2ccccc2)cc1 , report its log10 solubility kinetic.
Reply text: 1.30

Inquiry: Using the record for CN(C)C(=O)c1cc2cc(Br)ccc2s1 , report its log10 solubility kinetic.
Reply text: 0.87

Inquiry: Using the record for COC(=O)c1cc(S(=O)(=O)NC2CCCCC2)cn1C , report its log10 solubility kinetic.
Reply text: 1.62

Inquiry: Using the record for COC(=O)c1ccc(NC(=O)N(c2ccccc2)c2ccccc2)cc1 , report its log10 solubility kinetic.
Reply text: -0.15

Inquiry: Using the record for O=C(COC(=O)/C=C/c1ccc(F)cc1)NC1CCCCCC1 , report its log10 solubility kinetic.
Reply text: 0.57

Inquiry: Using the record for CCn1c(=O)c2ccccc2n(Cc2ccc([N+](=O)[O-])cc2)c1=O , report its log10 solubility kinetic.
Reply text: 0.75

Inquiry: Using the record for O=C(c1ccco1)N1CCN(C(=O)N2CCCC2)CC1 , report its log10 solubility kinetic.
Reply text: 1.59

---

# Measurement setup: buffer; pH 7.4; 200.0 µM
Quantity kind: solubility kinetic

Inquiry: Using the record for CC1CN(C(=O)Nc2ccc(F)cc2F)CC(C)O1 (stereo unspecified) , report its solubility kinetic.
Reply text: > 40.5 µg/mL

Inquiry: Using the record for Nc1nc(Oc2ccc(F)cc2)c(Br)c(=O)[nH]1 , report its solubility kinetic.
Reply text: > 45 µg/mL

Inquiry: Using the record for CCOC(=O)c1c(NC(=O)c2ccccc2C(=O)O)sc2c1CCCC2 , report its solubility kinetic.
Reply text: 41.5 µg/mL

Inquiry: Using the record for O=C(NC1CCCC1)c1cc2c(=O)n3ccccc3nc2s1 , report its solubility kinetic.
Reply text: 11.2 µg/mL

Inquiry: Using the record for COc1cccc(CN2CCN(Cc3ccc(O)cc3)CC2CCO)c1 (stereo unspecified) , report its solubility kinetic.
Reply text: 49.2 µg/mL

Inquiry: Using the record for CCc1cc(C(=O)NCC(C)(C)N2CCOCC2)sc1C , report its solubility kinetic.
Reply text: > 46.6 µg/mL

---

# Measurement setup: buffer; pH 7.4; 200.0 µM
Quantity kind: solubility kinetic (µg/mL)
Give a bare numeral; the unit µg/mL is implied.

Inquiry: Using the record for CCOc1nc(Nc2ccccc2F)nc(OCC)n1 , report its solubility kinetic.
Reply text: 10.4

Inquiry: Using the record for O=C(O)c1cc(-c2ccc(Cl)s2)nc2ccccc12 , report its solubility kinetic.
Reply text: 41.5

Inquiry: Using the record for Cc1noc(C)c1CSc1ccccc1C(=O)OC(C)C(N)=O (stereo unspecified) , report its solubility kinetic.
Reply text: 11.5

Inquiry: Using the record for Cc1cc(C)c(C#N)c(N2CCN(c3ccccc3F)CC2)n1 , report its solubility kinetic.
Reply text: 3.8

Inquiry: Using the record for Cc1cccc(NC(=O)C[n+]2ccc(N(C)C)cc2)c1.[Cl-] , report its solubility kinetic.
Reply text: 45.9

Inquiry: Using the record for Cc1ccc(C(=O)O/N=C(\N)c2ccccn2)cc1 , report its solubility kinetic.
Reply text: 6.9

---

# Measurement setup: buffer; pH 7.4; 200.0 µM
Decision: solubility kinetic >= 10 µg/mL yields condition met, all other cases yield condition not met.

Inquiry: Tell me whether solubility kinetic is at least 10 µg/mL here: CCN1C(=O)CC(N2CCN(c3cccc(OC)c3)CC2)C1=O (stereo not given)
Reply text: condition met

Inquiry: Tell me whether solubility kinetic is at least 10 µg/mL here: C=CCNC(=O)C(=O)NCC1CCCN1CC (stereo not given)
Reply text: condition met

Inquiry: Tell me whether solubility kinetic is at least 10 µg/mL here: CC1CCN(Cc2cc(=O)oc3ccc(C(C)C)cc23)CC1.Cl
Reply text: condition not met

Inquiry: Tell me whether solubility kinetic is at least 10 µg/mL here: CNC(=O)C(NC(=O)c1ccccc1)=C(C)C
Reply text: condition met

Inquiry: Tell me whether solubility kinetic is at least 10 µg/mL here: COc1ccc2nc(SCC(=O)Nc3ccccc3OC)[nH]c2c1
Reply text: condition met

Inquiry: Tell me whether solubility kinetic is at least 10 µg/mL here: Cc1cc(-c2ccc(Cl)cc2Cl)c(C#N)c(=O)[nH]1
Reply text: condition not met

Inquiry: Tell me whether solubility kinetic is at least 10 µg/mL here: COc1ccc(C(=O)N2CCC(C(=O)NC3CC3)CC2)cc1
Reply text: condition met

Inquiry: Tell me whether solubility kinetic is at least 10 µg/mL here: COc1ccc(CNc2nc(C)cc(C)c2C#N)cc1
Reply text: condition not met

Inquiry: Tell me whether solubility kinetic is at least 10 µg/mL here: CCN(CC)S(=O)(=O)c1cccc(-c2csc(C)n2)c1
Reply text: condition met

Inquiry: Tell me whether solubility kinetic is at least 10 µg/mL here: Cc1cc(N)c2ccccc2n1
Reply text: condition met

Inquiry: Tell me whether solubility kinetic is at least 10 µg/mL here: Br.CCSC(=Nc1ccccc1)N1CCOCC1
Reply text: condition met

Inquiry: Tell me whether solubility kinetic is at least 10 µg/mL here: Br.Cc1ccnc(Nc2nc(-c3sc(C)nc3C)cs2)c1
Reply text: condition not met

Inquiry: Tell me whether solubility kinetic is at least 10 µg/mL here: CCN(CC(=O)NCc1ccc(F)cc1)C(=O)/C=C/c1ccco1
Reply text: condition met

Inquiry: Tell me whether solubility kinetic is at least 10 µg/mL here: Cc1ccc(S(=O)(=O)CCC(=O)Nc2ccccc2C)cc1
Reply text: condition met

Inquiry: Tell me whether solubility kinetic is at least 10 µg/mL here: CN(c1ccc(C(=O)N2CCOCC2)cc1)S(=O)(=O)c1cccs1
Reply text: condition met

Inquiry: Tell me whether solubility kinetic is at least 10 µg/mL here: Cc1nc(SCC(N)=O)c([N+](=O)[O-])[nH]1
Reply text: condition met

Inquiry: Tell me whether solubility kinetic is at least 10 µg/mL here: Cc1cc([N+](=O)[O-])ccc1NCc1ccc2c(c1)OCCO2
Reply text: condition met

Inquiry: Tell me whether solubility kinetic is at least 10 µg/mL here: O=C(NCc1ccccc1)N1CCOCC1
Reply text: condition met

Inquiry: Tell me whether solubility kinetic is at least 10 µg/mL here: CCN(C(=O)CSc1nnc(-c2ccc(F)cc2)n1C)C1CCS(=O)(=O)C1 (stereo not given)
Reply text: condition met

Inquiry: Tell me whether solubility kinetic is at least 10 µg/mL here: COc1ccc(C(=O)CN2CCN(c3ccc(F)cc3)CC2)cc1
Reply text: condition met

Inquiry: Tell me whether solubility kinetic is at least 10 µg/mL here: O=CNCc1nc2ccccc2n1CCc1ccccc1
Reply text: condition met

Inquiry: Tell me whether solubility kinetic is at least 10 µg/mL here: COc1ccccc1CC(=O)NCC(c1ccco1)N1CCCCC1 (stereo not given)
Reply text: condition met

Inquiry: Tell me whether solubility kinetic is at least 10 µg/mL here: CC(C)C(=O)Nc1nc(-c2ccc([N+](=O)[O-])cc2)cs1
Reply text: condition not met

Inquiry: Tell me whether solubility kinetic is at least 10 µg/mL here: CCN(CC)C(=O)c1cccc(NC(=O)C2=COCCO2)c1
Reply text: condition met

Inquiry: Tell me whether solubility kinetic is at least 10 µg/mL here: Cc1ccc(S(=O)(=O)N2CC(C(=O)O)Oc3ccccc32)cc1 (stereo not given)
Reply text: condition met
